# procedure details: Selectivity index, ratio of IC50 for C57BL/6 mouse peritoneal macrophages to MIC for Cryptococcus neoformans ATCC 24067
readout kind: Ratio
Answer with a bare number; do not write a unit.

Let me know recorded Ratio for "c1ccc(-c2csc(NN=C3CCCC3)n2)cc1" , thanks.
29

Let me know recorded Ratio for "COc1ccc(/C=N/Nc2nc(-c3ccc(Cl)cc3)cs2)cc1OC" , thanks.
6.41

Let me know recorded Ratio for "COc1ccc(-c2csc(N/N=C/C3CCCCC3)n2)cc1" , thanks.
52.63

Let me know recorded Ratio for "OC(Cn1cncn1)(Cn1cncn1)c1ccc(F)cc1F" , thanks.
15.74

Let me know recorded Ratio for "C[C@@H]1[C@H](O)[C@@H](C)/C=C/C=C/C=C/C=C/C=C/C=C/C=C/[C@H](O[C@@H]2O[C@H](C)[C@@H](O)[C@H](N)[C@@H]2O)C[C@@H]2O[C@](O)(C[C@@H](O)C[C@@H](O)[C@H](O)CC[C@@H](O)C[C@@H](O)CC(=O)O[C@H]1C)C[C@H](O)[C@H]2C(=O)O" , thanks.
109.81

----------
# Test system: Cryptococcus gattii species complex
# procedure details: Antifungal activity against Cryptococcus gattii LMM818 after 48 to 72 hrs by broth microdilution method
# Type: functional, Cryptococcus bacillisporus
Just a reminder that ties go to N: only MIC strictly below 4 µM counts as Y.

Field: example entries. Status: answers known.
COc1ccc(-c2csc(N/N=C/C3CCCCC3)n2)cc1
N
COc1ccc(-c2csc(N/N=C(\C)CCO)n2)cc1
Y
C[C@@H]1[C@H](O)[C@@H](C)/C=C/C=C/C=C/C=C/C=C/C=C/C=C/[C@H](O[C@@H]2O[C@H](C)[C@@H](O)[C@H](N)[C@@H]2O)C[C@@H]2O[C@](O)(C[C@@H](O)C[C@@H](O)[C@H](O)CC[C@@H](O)C[C@@H](O)CC(=O)O[C@H]1C)C[C@H](O)[C@H]2C(=O)O
Y
OC(Cn1cncn1)(Cn1cncn1)c1ccc(F)cc1F
N
c1ccc(-c2csc(NN=C3CCCC3)n2)cc1
Y

# evaluate next
Here's an entry: "C(=N\Nc1nc(-c2ccccc2)cs1)/C1CCCCC1" . Is its MIC below 4 µM?
Y

----------
# System: Cryptococcus gattii species complex
# procedure details: Ratio of compound MIC for Cryptococcus gattii L24/01 in presence of amphotericin B to compound MIC for Cryptococcus gattii L24/01 in absence of amphotericin B by checkerboard microtiter test
# Type: functional, Cryptococcus bacillisporus
readout kind: fractional inhibitory concentration index (FICI)
Answer with a bare number; do not write a unit.

Reference set (3 entries):
C(=N\Nc1nc(-c2ccccc2)cs1)/C1CCCCC1
4.87
c1ccc(-c2csc(NN=C3CCCC3)n2)cc1
2.16
COc1ccc(-c2csc(N/N=C(\C)CCO)n2)cc1
4.98

From here, focus on the item given below.
Let me know recorded fractional inhibitory concentration index (FICI) for "COc1ccc(-c2csc(N/N=C/C3CCCCC3)n2)cc1" , thanks.
2.38

----------
# procedure details: Selectivity index, ratio of IC50 for C57BL/6 mouse peritoneal macrophages to MIC for Cryptococcus neoformans ATCC 24067
readout kind: Ratio
Answer with a bare number; do not write a unit.

Reference set (4 entries):
C(=N\Nc1nc(-c2ccccc2)cs1)/C1CCCCC1
111
C(=C1/CCCC/C1=N\Nc1nc(-c2ccccc2)cs1)/c1ccccc1
6.41
COc1ccc(-c2csc(N/N=C(\C)CCO)n2)cc1
222
Clc1ccc(-c2csc(N/N=C3\CCCC\C3=C/c3ccccc3)n2)cc1
12.8

From here, focus on the item given below.
Let me know recorded Ratio for "COc1ccc(-c2csc(N/N=C3\CCCC\C3=C/c3ccccc3)n2)cc1" , thanks.
12.8
